# Run conditions: % Viability non-Wnt responsive cells
Where a SMILES comes first, the peptide text is derived from it.
Item-by-item account of viability
Metric name: viability (%)

* CC[C@H](C)[C@H](NC(=O)[C@H](CC(C)C)NC(=O)[C@@H](NC(=O)[C@H](Cc1c[nH]c2ccccc12)NC(=O)[C@H](CCSC)NC(=O)[C@@H](N)Cc1c[nH]cn1)[C@@H](C)CC)C(=O)N[C@@H](CS)C(=O)N[C@@H](Cc1ccccc1)C(=O)N[C@@H](Cc1c[nH]c2ccccc12)C(=O)NCC(=O)O [compound 114] (H-HMWILICFWG-OH) | 123
* CC[C@H](C)[C@H](NC(=O)[C@H](CC(C)C)NC(=O)[C@H](Cc1ccccc1)NC(=O)[C@H](Cc1c[nH]c2ccccc12)NC(=O)[C@H](CCSC)NC(=O)[C@H](CCCNC(=N)N)NC(=O)[C@H](CCC(N)=O)NC(=O)[C@@H](N)CCSC)C(=O)N[C@@H](CO)C(=O)N[C@@H](Cc1ccccc1)C(=O)N[C@@H](Cc1c[nH]c2ccccc12)C(N)=O [compound 74] (H-MQRMWFLISFW-NH2) | 91.2
* CC[C@H](C)[C@H](NC(=O)[C@H](CC(C)C)NC(=O)[C@H](Cc1ccccc1)NC(=O)[C@H](Cc1c[nH]c2ccccc12)NC(=O)[C@H](Cc1c[nH]c2ccccc12)NC(=O)[C@H](CCCNC(=N)N)NC(=O)[C@H](CO)NC(=O)[C@@H](N)CCSC)C(=O)N[C@@H](CO)C(=O)N[C@@H](Cc1ccccc1)C(=O)N[C@@H](Cc1c[nH]c2ccccc12)C(N)=O [compound 78] (H-MSRWWFLISFW-NH2) | 101

* * *

# System name: UniProtKB P35222
# Sequence (P35222 1-781): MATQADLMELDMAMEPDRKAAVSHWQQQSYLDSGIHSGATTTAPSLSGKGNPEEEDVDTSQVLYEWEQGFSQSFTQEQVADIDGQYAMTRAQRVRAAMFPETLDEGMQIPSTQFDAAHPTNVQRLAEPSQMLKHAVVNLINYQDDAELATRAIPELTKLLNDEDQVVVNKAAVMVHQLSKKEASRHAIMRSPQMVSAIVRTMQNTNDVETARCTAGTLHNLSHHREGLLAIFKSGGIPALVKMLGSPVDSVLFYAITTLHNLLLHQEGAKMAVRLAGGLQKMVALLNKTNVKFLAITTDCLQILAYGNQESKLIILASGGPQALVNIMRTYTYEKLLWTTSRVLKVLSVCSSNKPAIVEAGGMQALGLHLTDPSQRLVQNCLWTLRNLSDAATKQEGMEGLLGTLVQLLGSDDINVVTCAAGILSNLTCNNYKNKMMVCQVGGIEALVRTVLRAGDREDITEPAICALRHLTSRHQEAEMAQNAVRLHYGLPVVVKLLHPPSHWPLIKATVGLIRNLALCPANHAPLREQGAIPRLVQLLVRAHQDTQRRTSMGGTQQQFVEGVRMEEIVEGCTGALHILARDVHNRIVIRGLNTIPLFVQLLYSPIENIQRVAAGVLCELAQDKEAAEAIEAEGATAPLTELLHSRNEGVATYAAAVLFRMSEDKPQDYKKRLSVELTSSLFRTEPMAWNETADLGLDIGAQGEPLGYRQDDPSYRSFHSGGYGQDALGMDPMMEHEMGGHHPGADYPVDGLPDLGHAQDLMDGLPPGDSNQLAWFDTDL
# Measurement notes: KD50 measurement using competitive fluorescence polarization (FP) with labelled TCF4
# Type: binding
# Run conditions: fluorescence polarization, β-catenin; read-out: β-Cat FP KD
Where a SMILES comes first, the peptide text is derived from it.
Metric name: Kd

- CC[C@H](C)[C@H](NC(=O)[C@H](CC(C)C)NC(=O)[C@H](Cc1ccccc1)NC(=O)[C@H](Cc1c[nH]c2ccccc12)NC(=O)[C@H](CCCCN)NC(=O)[C@H](CCCNC(=N)N)NC(=O)[C@H](CO)NC(=O)[C@@H](N)Cc1c[nH]c2ccccc12)C(=O)N[C@@H](CO)C(=O)N[C@@H](Cc1ccccc1)C(=O)N[C@@H](Cc1c[nH]c2ccccc12)C(N)=O [compound 90] (H-WSRKWFLISFW-NH2): > 30 µM
- CC[C@H](C)[C@@H]1NC(=O)[C@H](CC(C)C)NC(=O)[C@H](Cc2ccccc2)NC(=O)[C@@H](NC(C)=O)CCCCNC(=O)C[C@@H](C(=O)O)NC(=O)[C@H](Cc2c[nH]c3ccccc23)NC(=O)[C@H](Cc2ccccc2)NC(=O)[C@H](C)NC1=O [compound 254] (HELM PEPTIDE1{[ac].K.F.L.I.A.F.W.D}$PEPTIDE1,PEPTIDE1,2:R3-9:R3$$$V2.0): > 30 µM
- CC[C@H](C)[C@H](NC(=O)[C@H](CC(C)C)NC(=O)[C@@H](NC(=O)[C@@H](N)Cc1c[nH]c2ccccc12)[C@@H](C)CC)C(=O)N[C@@H](C)C(=O)N[C@@H](Cc1ccccc1)C(=O)N[C@@H](Cc1c[nH]c2ccccc12)C(=O)NCC(=O)O [compound 265] (H-WILIAFWG-OH): 1 to 10 µM

* * *

pEC50 values, listed per item
# System name: Wnt-responsive promoter (TCF/LEF)
# Measurement notes: Wnt-dependent luciferase reporter assay
pEC50: −log10 of the molar value. Where a SMILES comes first, the peptide text is derived from it.
Metric name: pEC50

- CC[C@H](C)[C@H](NC(=O)[C@H](CO)NC(=O)[C@H](CCC(=O)O)NC(=O)[C@H](Cc1c[nH]c2ccccc12)NC(=O)[C@@H](N)CCSC)C(=O)N[C@@H](CC(C)C)C(=O)N[C@@H](CC(=O)O)C(=O)N[C@@H](CCC(=O)O)C(=O)N[C@@H](Cc1c[nH]cn1)C(=O)N[C@H](C(=O)N[C@@H](CCC(N)=O)C(=O)N[C@@H](CCCNC(=N)N)C(=O)N[C@H](C(=O)N[C@@H](Cc1c[nH]c2ccccc12)C(=O)NCC(=O)O)C(C)C)C(C)C [compound 22] (H-MWESILDEHVQRVWG-OH): < 4.52
- CC[C@H](C)[C@H](NC(=O)[C@H](CC(C)C)NC(=O)[C@H](Cc1ccccc1)NC(=O)[C@H](Cc1c[nH]c2ccccc12)NC(=O)[C@@H](N)CCSC)C(=O)N[C@@H](CS)C(=O)N[C@@H](Cc1ccccn1)C(=O)N[C@@H](Cc1c[nH]c2ccccc12)C(=O)NCC(=O)O [compound 148] (HELM PEPTIDE1{M.W.F.L.I.C.[O=C([C@H](Cc1ccccn1)N[*:1])[*:2]].W.G}$$$$V2.0): 4.82 to 5.12

* * *

# Run conditions: % Viability non-Wnt responsive cells
Where a SMILES comes first, the peptide text is derived from it.
Here the recorded viability is given for each entry.
Metric name: viability (%)

• CC[C@H](C)[C@H](NC(=O)[C@H](CC(C)C)NC(=O)[C@@H](NC(=O)[C@H](Cc1c[nH]c2ccccc12)NC(=O)[C@H](CCSC)NC(=O)[C@H](CCCNC(=N)N)NC(=O)[C@H](CO)NC(=O)[C@@H](N)CCSC)[C@@H](C)CC)C(=O)N[C@@H](CO)C(=O)N[C@@H](Cc1ccccc1)C(=O)N[C@@H](Cc1c[nH]c2ccccc12)C(=O)NCC(=O)O [compound 51] (H-MSRMWILISFWG-OH) = 98.5
• CC[C@H](C)[C@H](NC(=O)[C@H](CC(C)C)NC(=O)[C@H](Cc1ccccc1)NC(=O)[C@H](Cc1c[nH]c2ccccc12)NC(=O)[C@@H](N)CCSC)C(=O)N[C@@H](CO)C(=O)N[C@@H](Cc1ccccc1)C(=O)N[C@@H](Cc1c[nH]c2ccccc12)C(=O)N[C@@H](CCCNC(=N)N)C(=O)NCC(=O)O [compound 49] (H-MWFLISFWRG-OH) = 103
• CSCC[C@H](NC(=O)[C@H](CCCNC(=N)N)NC(=O)[C@H](CO)NC(=O)[C@@H](N)CCSC)C(=O)N[C@@H](Cc1c[nH]c2ccccc12)C(=O)N[C@@H](Cc1ccccc1)C(=O)N[C@@H](CC(C)C)C(=O)N[C@@H](Cc1ccccc1)C(=O)N[C@@H](CO)C(=O)N[C@@H](Cc1ccccc1)C(=O)N[C@@H](Cc1c[nH]c2ccccc12)C(=O)NCC(=O)O [compound 63] (H-MSRMWFLFSFWG-OH) = 97.9

* * *

# System name: Wnt-responsive promoter (TCF/LEF)
# Measurement notes: Wnt-dependent luciferase reporter assay
Where a SMILES comes first, the peptide text is derived from it.
Reported EC50 is given for each of the following molecules.
Metric name: EC50

* CC[C@H](C)[C@H](NC(=O)[C@H](Cc1c[nH]c2ccccc12)NC(=O)[C@@H](N)CCSC)C(=O)NC(C)(CC(C)C)C(=O)N[C@H](C(=O)N[C@@H](CO)C(=O)N[C@@H](Cc1ccccc1)C(=O)N[C@@H](Cc1c[nH]c2ccccc12)C(=O)NCC(=O)O)[C@@H](C)CC (stereo partly drawn) [compound 138] (HELM PEPTIDE1{M.W.I.[CC(C)CC(C)(N[*:1])C(=O)[*:2]].I.S.F.W.G}$$$$V2.0) | > 30 µM
* CC[C@H](C)[C@H](NC(=O)[C@H](CC(C)C)NC(=O)[C@H](Cc1ccccc1)NC(=O)[C@H](Cc1c[nH]c2ccccc12)NC(=O)[C@H](CCSC)NC(=O)[C@H](CCCNC(=N)N)NC(=O)[C@@H](NC(=O)[C@@H](N)CCSC)[C@@H](C)CC)C(=O)N[C@@H](CS)C(=O)N[C@@H](C)C(=O)N[C@@H](Cc1c[nH]c2ccccc12)C(=O)NCC(=O)O [compound 166] (H-MIRMWFLICAWG-OH) | > 30 µM
* CC[C@H](C)[C@H](NC(=O)[C@H](CC(C)C)NC(=O)[C@H](Cc1ccccc1)NC(=O)[C@H](Cc1c[nH]c2ccccc12)NC(=O)[C@@H](N)CCSC)C(=O)N[C@@H](CO)C(=O)N[C@@H](CO)C(=O)N[C@@H](Cc1c[nH]c2ccccc12)C(=O)O [compound 96] (H-MWFLISSW-OH) | 7.5 to 15 µM
* CC[C@H](C)[C@H](NC(=O)[C@@H]1CCCN1C(=O)[C@H](Cc1ccccc1)NC(=O)[C@H](Cc1c[nH]c2ccccc12)NC(=O)[C@H](CCSC)NC(=O)[C@H](CCCNC(=N)N)NC(=O)[C@H](CO)NC(=O)[C@@H](N)CCSC)C(=O)N[C@@H](CO)C(=O)N[C@@H](Cc1ccccc1)C(=O)N[C@@H](Cc1c[nH]c2ccccc12)C(=O)NCC(=O)O [compound 65] (H-MSRMWFPISFWG-OH) | > 30 µM
* CC[C@H](C)[C@H](NC(=O)[C@H](CC(C)C)NC(=O)[C@@H](NC(=O)[C@H](Cc1c[nH]c2ccccc12)NC(=O)[C@H](CCSC)NC(=O)[C@@H](N)Cc1c[nH]cn1)[C@@H](C)CC)C(=O)N[C@@H](CS)C(=O)N[C@@H](Cc1ccccc1)C(=O)N[C@@H](Cc1c[nH]c2ccccc12)C(=O)NCC(=O)O [compound 114] (H-HMWILICFWG-OH) | < 7.5 µM
* CC[C@H](C)[C@@H]1NC(=O)[C@H](CC(C)C)NC(=O)[C@H](Cc2ccccc2)NC(=O)[C@H](Cc2c[nH]c3ccccc23)NC(=O)[C@@H](N)CCCCNC(=O)CC[C@@H](C(=O)O)NC(=O)[C@H](Cc2c[nH]c3ccccc23)NC(=O)[C@H](Cc2ccccc2)NC(=O)[C@H](C)NC1=O [compound 201] (HELM PEPTIDE1{K.W.F.L.I.A.F.W.E}$PEPTIDE1,PEPTIDE1,1:R3-9:R3$$$V2.0) | 22.5 to 30 µM
